The measurements presented in this section are drawn from patent US20250339504A1.

# System: HLA-A*02:01 transgenic mice
# Measurement Description: Peptide vaccine CTL induction, IFN-γ ELISpot, HLA-A*02:01 Tgm
# Type: in vivo
# Run Conditions: HLA-A*02:01-restricted short peptide vaccine once per week, three times, splenocytes
Assay Readout: CTL induction

- ELFDSLFPV [CA02 12]: Yes
- FLIIQNAAV [A02-GPC3-12]: Yes
- QLLTPVPSL [LAT1-A02-1]: Yes
- FIFHKDLCQA [CA02 101]: Yes
- YLIGHGTKV [CA02 122]: Yes
- HLIDKVISTI [CA02 82]: Yes
- VIADRPPPV [CA02 97]: Yes
- DFSGLLEKC [CA02 104]: Yes
- STIHDSIQYV [A02-GPC3-14]: Yes
- FLLCLAGRAL [CA02 56]: Yes
- ALFTGWAAA [CLDN1-A02-2]: Yes
- VLDSLVSNV [CA02 81]: Yes
- FFTDVSLYI [A02-GPC3-18]: Yes
- FLRRGPFEL [CA02 21]: Yes
- TIHDSIQYV [CA02 13]: Yes
- YSYAGDNIV [CLDN1-A02-5]: Yes
